Recorded values, source PubChem BioAssay (NCI).

# test: NCI Yeast Anticancer Drug Screen. Data for the sgs1 mgt1 strain (AID 161)
# reported_conditions: S. cerevisiae sgs1 mgt1 strain, at 5.0 µM (retest, dose inferred, filed as 0.5), hits give high values
About 79,000 compounds went through this panel and 15% of them were active in at least one assay; those are over-represented in the sample as a whole.
Mark not fulfilled for growth inhibition values under 20%, and fulfilled for everything at or above.

Q) Could you verify whether the entry `COc1cc(/C=C2/C(=O)N(C(=O)c3ccccc3O)N=C2C)cc(OC)c1OC` shows growth inhibition of no less than 20%?
A) not fulfilled

Q) Could you verify whether the entry `O=C(CNc1ccccc1[N+](=O)[O-])Nn1c(-c2ccccc2)nc2ccccc2c1=O` shows growth inhibition of no less than 20%?
A) not fulfilled

Q) Could you verify whether the entry `O=[N+]([O-])c1cc(Cl)ccc1S(=O)(=O)c1ccccc1` shows growth inhibition of no less than 20%?
A) not fulfilled

Q) Could you verify whether the entry `Cc1nc2ccc3c(ccc4nc(C)c(N=Nc5ccc(C(=N)N)cc5)c(O)c43)c2c(O)c1N=Nc1ccc(C(=N)N)cc1` shows growth inhibition of no less than 20%?
A) not fulfilled

Q) Could you verify whether the entry `CNC(=O)OCc1c(COC(=O)NC)c(-c2ccc(OC)cc2)n2c1CCC2` shows growth inhibition of no less than 20%?
A) fulfilled
